Origin of the recorded values: paper PMC8453848

target.under.test: CYP1A2 (Homo sapiens, UniProt P05177)
Sequence (P05177 1-516): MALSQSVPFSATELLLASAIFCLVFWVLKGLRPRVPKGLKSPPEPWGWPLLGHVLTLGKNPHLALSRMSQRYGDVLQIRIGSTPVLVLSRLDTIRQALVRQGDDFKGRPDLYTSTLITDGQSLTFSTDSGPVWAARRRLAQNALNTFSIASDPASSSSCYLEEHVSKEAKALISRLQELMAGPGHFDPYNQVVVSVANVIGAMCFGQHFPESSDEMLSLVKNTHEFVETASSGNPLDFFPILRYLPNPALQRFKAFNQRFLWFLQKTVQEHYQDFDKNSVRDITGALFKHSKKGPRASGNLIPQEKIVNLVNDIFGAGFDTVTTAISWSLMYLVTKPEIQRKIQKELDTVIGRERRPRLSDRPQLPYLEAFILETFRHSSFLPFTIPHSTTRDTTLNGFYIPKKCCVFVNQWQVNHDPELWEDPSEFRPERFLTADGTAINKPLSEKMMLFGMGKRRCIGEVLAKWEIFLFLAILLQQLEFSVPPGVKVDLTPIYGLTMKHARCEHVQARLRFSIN
method: clinical
assay.context: male, plasma, oral, AUC0‐t, Placebo + caffeine, arithmetic mean (CV%)
measure: AUC (ng·h/mL)
Please respond with the number in ng·h/mL and leave the unit unwritten.

Cn1c(=O)[nH]c2ncn(C)c2c1=O; 8430

// below: AUC requested for another molecule
Given the molecule Cn1c(=O)c2c(ncn2C)n(C)c1=O , what is its reported AUC?
16300

* * *

Tested on: CYP1A2
method: in vitro
assay.context: human, Phenacetin O-deethylase activity, fold induction
Protocol: GLPG1205 was incubated with monolayer cultures of fresh human hepatocytes from 3 individual donors for 24 hours (messenger ribonucleic acid [mRNA] analysis) or 48 hours (enzyme activity) at 6 different concentrations: 0.5, 1, 5, 10, 50, and 100 μM (0.19, 0.38, 1.89, 3.78, 18.9, and 37.8 μg/mL, respectively). […] Enzymatic Assay At the end of the 48-hour incubation period, CYP1A2 enzyme activity was measured in intact cells by incubating with phenacetin, a probe substrate. […]
measure: fold induction at 48 h, 0.1 µM
No unit in the answer, please; the number alone is enough.

Given the compound O=c1nc(OC[C@@H]2COCCO2)cc2n1CCc1cc(C#CC3CC3)ccc1-2 , what is its reported fold induction at 48 h, 0.1 µM?
1.64

* * *

target.under.test: CYP1A2 (Homo sapiens)
method: CYP1A2 inhibition, phenacetin O-deethylase assay in human liver microsomes
Assay type: in vitro ADME
Parameters: from tissue; host or cells: in vivo, 14 healthy male subjects
assay.context: estimated; equivalent of ≥100 μM; read-out: IC50 for inhibition of CYP1A2, equivalent
measure: IC50

Given the compound O=c1nc(OC[C@@H]2COCCO2)cc2n1CCc1cc(C#CC3CC3)ccc1-2 , what is its reported IC50?
≥ 99.9 µM
